These measurements were taken from ChEMBL document CHEMBL1155964.

Test system: Human immunodeficiency virus 1
procedureSummary: Antiviral activity against HIV1 3B infected in human MT2 cells assessed as inhibition of viral replication by p24 antigen assay
Assay type: functional, organism-based
particulars: Human immunodeficiency virus 1, 3B
pEC50: −log10 of the molar value.
I would appreciate it if you labelled entries rule met when pEC50 is 7 or higher, otherwise rule not met.

givensmiles=Cc1cc(C#CC(C)(C)O)cc(C)c1Oc1ccc([N+](=O)[O-])c(Nc2ccc(C#N)cc2)n1 discretelabel="rule not met"
givensmiles=Cc1cc(CO)cc(C)c1Oc1ccc(N)c(Nc2ccc(C#N)cc2)n1 discretelabel="rule met"
givensmiles=C#Cc1cc(C)c(Oc2ccc([N+](=O)[O-])c(Nc3ccc(C#N)cc3)n2)c(C)c1 discretelabel="rule not met"
givensmiles=Cc1cc(C#CC(C)(C)O)cc(C)c1Oc1ccc(N)c(Nc2ccc(C#N)cc2)n1 discretelabel="rule not met"
givensmiles=Cc1cc(C#N)cc(C)c1Oc1ccc(N)c(Nc2ccc(C#N)cc2)n1 discretelabel="rule met"
givensmiles=C#Cc1cc(C)c(Oc2ccc(N)c(Nc3ccc(C#N)cc3)n2)c(C)c1 discretelabel="rule not met"
givensmiles=Cc1cccc(C)c1Oc1ccc(N)c(Nc2ccc(C#N)cc2)n1 discretelabel="rule not met"
